Cited source for all entries: ChEMBL document CHEMBL1134073

biological target: Human immunodeficiency virus type 1 protease (Human immunodeficiency virus 1); test: Inhibitory activity against HIV protease
reported-metric: pKi
// returns pKi (minus log10 of molar concentration), number only

{"columns": ["compound", "target-of-assay", "pKi"],
 "data": [
  ["Cc1cccc(C)c1OCC(=O)N[C@@H](Cc1ccccc1)[C@@H](O)C[C@H](Cc1ccccc1)NC(=O)[C@H](C(C)C)N1CCC(=O)NC1=O", "Human immunodeficiency virus type 1 protease (Human immunodeficiency virus 1)", 12.15]
]}

Proceed to the following item.
Give the reported pKi for this compound. Cc1cccc(C)c1OCC(=O)N[C@@H](Cc1ccccc1)[C@@H](O)C[C@H](Cc1ccccc1)NC(=O)[C@H](C(C)C)N1CCC(O)NC1=O (some centres not stated)
11.92

* * *

test system: MT4; assay: Antiviral activity against HIV in presence of 50% human serum in MT-4 cell was determined; type: functional, cell-based
reported-metric: EC50 (µM)
Supply the numeric figure in µM, leaving out any unit text.

{"columns": ["molecule", "units-text", "EC50"],
 "data": [
  ["Cc1cccc(C)c1OCC(=O)N[C@@H](Cc1ccccc1)[C@@H](O)C[C@H](Cc1ccccc1)NC(=O)[C@H](C(C)C)N1CCC(=O)NC1=O", "µM", 1.41],
  ["Cc1cccc(C)c1OCC(=O)N[C@@H](Cc1ccccc1)[C@@H](O)C[C@H](Cc1ccccc1)NC(=O)[C@H](C(C)C)N1CCCNC1=O [LOPINAVIR]", "µM", 0.104]
]}

Proceed to the following item.
Give the reported EC50 for this molecule. Cc1cccc(C)c1OCC(=O)N[C@@H](Cc1ccccc1)[C@@H](O)C[C@H](Cc1ccccc1)NC(=O)[C@H](C(C)C)N1CCC(O)NC1=O (stereo partly drawn)
2.31
